Tested Target: human neuropeptide Y5 receptor (Homo sapiens, UniProt Q15761)
Construct: expressed in transfected cells; host or cells: HEK-293, stably transfected, G-418 selected; membranes
Sequence (Q15761 whole entry): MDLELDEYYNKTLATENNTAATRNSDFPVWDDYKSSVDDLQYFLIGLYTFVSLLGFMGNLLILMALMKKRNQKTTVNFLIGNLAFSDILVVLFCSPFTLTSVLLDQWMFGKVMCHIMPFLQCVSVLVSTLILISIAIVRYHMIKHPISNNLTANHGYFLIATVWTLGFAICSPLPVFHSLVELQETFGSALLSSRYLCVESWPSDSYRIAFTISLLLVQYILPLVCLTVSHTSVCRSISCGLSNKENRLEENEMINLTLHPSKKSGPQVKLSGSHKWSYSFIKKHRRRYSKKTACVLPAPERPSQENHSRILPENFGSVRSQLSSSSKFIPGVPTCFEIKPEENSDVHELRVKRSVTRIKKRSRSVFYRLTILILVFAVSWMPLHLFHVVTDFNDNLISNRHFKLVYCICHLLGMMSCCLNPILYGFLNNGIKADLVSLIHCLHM
Protocol Details: NPY5 HTS centrifugation assay: competition with 125I-PYY for binding to membranes of NPY5-transfected HEK-293 cells
Settings: 3 μM test compound; inhibition of 125I-PYY binding
Measured Parameter: % Inh NPY5 @ 3 μM (%)

A selection of reference data follows.
Cc1ccc(-n2nc(-c3cccc(NS(=O)(=O)c4cccc(C(F)(F)F)c4)c3)cc2N)cc1; 20.00
COC(=O)c1ccc(-c2cc(N(S(=O)(=O)c3ccccc3)S(=O)(=O)c3ccccc3)n(-c3ccccc3)n2)cc1; 0
Cc1ccc(-n2nc(-c3ccc(C(=O)Nc4ccccc4)cc3)cc2NS(=O)(=O)c2ccc(C)cc2)cc1; 4.00

P = Cc1ccc(-n2nc(-c3ccc(C(=O)Nc4ccc(F)cc4)cc3)cc2NS(=O)(=O)c2ccc(C)cc2)cc1
Q = COC(=O)c1ccc(-c2cc(NS(=O)(=O)c3ccccc3)n(-c3ccccc3)n2)cc1
R = Cc1ccc(-n2nc(-c3cccc(NS(=O)(=O)c4cccc([N+](=O)[O-])c4)c3)cc2N)cc1
S = Cc1ccc(-n2nc(-c3ccc(NS(=O)(=O)c4cccc5ccccc45)cc3)cc2N)cc1
T = O=C(c1ccc(-c2cc(NS(=O)(=O)c3ccccc3)n(-c3ccccc3)n2)cc1)N1CCc2ccccc2C1
Data request: Order the entries by their reported % Inh NPY5 @ 3 μM, beginning at the minimum. I would appreciate it if you listed the labels in the requested order.
Data returned: R, P, Q, T, S

* * *

Tested Target: human neuropeptide Y5 receptor (Homo sapiens)
Construct: expressed in transfected cells; host or cells: HEK-293, stably transfected, G-418 selected; membranes
Protocol Details: NPY5 HTS centrifugation assay: competition with 125I-PYY for binding to membranes of NPY5-transfected HEK-293 cells
Settings: inhibition of 125I-PYY binding; values in nM; read-out: IC50 hNPY5
Measured Parameter: IC50 (nM)

A selection of reference data follows.
Cc1ccc(-n2nc(-c3ccc(NS(=O)(=O)c4cccc(N(C)C)c4)cc3)cc2N)cc1; 145
Cc1ccc(-n2nc(-c3ccc(NS(=O)(=O)c4ccccc4N)cc3)cc2N)cc1; 229
Cc1ccc(-n2nc(-c3cccc(NS(=O)(=O)c4ccccc4)c3)cc2N)cc1; 169

a = Cc1ccc(-n2nc(-c3ccc(NS(=O)(=O)c4ccc(N)cc4)cc3)cc2N)cc1
b = COc1ccc(S(=O)(=O)Nc2ccc(-c3cc(N)n(-c4cccc5ccccc45)n3)cc2)cc1
Data request: Quick one: lower IC50, a or b ? State your choice using its label.
Data returned: b
(b: 48 nM, a: 74 nM)

a = Cc1ccc(-n2nc(-c3ccc(NS(=O)(=O)c4cccc(C(F)(F)F)c4)cc3)cc2N)cc1
b = Cc1ccc(-n2nc(-c3ccc(NS(=O)(=O)c4ccc(OC(F)(F)F)cc4)cc3)cc2N)cc1
Data request: Recorded IC50 values differ for a and b ; which one is higher? State your choice using its label.
Data returned: b
(b: 67 nM, a: 31 nM)

P = Cc1ccc(-n2nc(-c3ccc(NS(=O)(=O)c4ccccc4)cc3)cc2N)cc1
Q = Nc1cc(-c2ccc(NS(=O)(=O)c3ccccc3)cc2)nn1-c1ccccn1
Data request: Recorded IC50 values differ for P and Q ; which one is higher? State your choice using its label.
Data returned: Q

A = COc1ccc(S(=O)(=O)Nc2ccc(-c3cc(N)n(-c4ccc(F)cc4)n3)cc2)cc1
B = Cc1cccc(-n2nc(-c3ccc(NS(=O)(=O)c4cccc(C(F)(F)F)c4)cc3)cc2N)c1
Data request: Recorded IC50 values differ for A and B ; which one is higher? State your choice using its label.
Data returned: A

A = Cc1ccc(-n2nc(-c3ccc(N(S(=O)(=O)c4ccccc4)S(=O)(=O)c4ccccc4)cc3)cc2N)cc1
B = Cc1ccc(S(=O)(=O)Nc2ccc(-c3cc(NS(=O)(=O)c4ccc(C)cc4)n(-c4ccccc4C)n3)cc2)cc1
C = COc1ccc(S(=O)(=O)Nc2ccc(-c3cc(N)n(-c4cccc(N(C)C)c4)n3)cc2)cc1
D = Cc1ccc(-n2nc(-c3ccc(NS(=O)(=O)c4cccc(N)c4)cc3)cc2N)cc1
Data request: Order the entries by their reported IC50, beginning at the minimum. I would appreciate it if you listed the labels in the requested order.
Data returned: C, B, D, A
(C: 30 nM, B: 200 nM, D: 303 nM, A: 514 nM)
